Test Description: Stability in human liver microsome after 30 mins
Assay type: ADME
Run Conditions: liver microsomes, read-out: Stability
Assay Metric: remaining at 0.5 h (%)
Write down the numeric answer in % and omit the unit.

[in] Quick check: remaining at 0.5 h of Cc1nn(C)c2c1c(=O)c1cc(Cl)ccc1n2O ?
[out] 100

###

Assay System: c-Jun N-terminal kinase, JNK (Homo sapiens, UniProt P45983+P53779+P45984)
Test Description: Inhibition of TNF-alpha-stimulated cJun phosphorylation in HepG2 cells
Type: functional, cell-based
Assay Metric: IC50

[in] Query (compound): Cn1nc(CCN)c2c(=O)c3cc(Cl)ccc3n(O)c21 ; field requested: IC50
[out] > 30 µM

[in] Entry CNC(=O)CCCc1nn(C)c2c1c(=O)c1cc(Cl)ccc1n2O : reported IC50 = ?
[out] > 30 µM

[in] Consider the compound shown here: CCOC(=O)Cn1nc(C)c2c(=O)c3cc(Cl)ccc3n(O)c21 What is its recorded IC50?
[out] > 30 µM

[in] # query: IC50 of entry Cn1c2[n+]([O-])c3ccc(Cl)cc3c(=O)c-2c2n1C(=O)NCC2
[out] 0.85 µM

[in] Item under review: CCCc1nn(C)c2c1c(=O)c1cc(Cl)ccc1n2O . Reported IC50?
[out] 26.6 µM

[in] For Cc1nn(CCO)c2c1c(=O)c1cc(Cl)ccc1n2O , what is its reported IC50?
[out] > 30 µM

[in] Query: IC50; subject: CC(C)c1nn(C)c2c1c(=O)c1cc(Cl)ccc1n2O
[out] > 30 µM

[in] Consider the compound shown here: Cn1nc(C(F)(F)F)c2c(=O)c3cc(Cl)c(Cl)cc3n(O)c21 What is its recorded IC50?
[out] > 30 µM

[in] If you can, please state the reported IC50 value of CCCCc1nn(C)c2c1c(=O)c1cc(Cl)ccc1n2O .
[out] > 30 µM

[in] Entry CCOC(=O)NCCc1nn(C)c2c1c(=O)c1cc(Cl)ccc1n2O has what IC50?
[out] > 30 µM

[in] Name the reported IC50 value associated with the compound COn1c2ccc(Cl)cc2c(=O)c2c(C)nn(C)c21
[out] 19.4 µM

[in] // IC50 lookup, key: COCCc1nn(C)c2c1c(=O)c1cc(Cl)ccc1n2O
[out] 14.7 µM

###

Give IC50 for every item shown.
Assay System: c-Jun N-terminal kinase, JNK (Homo sapiens, UniProt P45983+P53779+P45984)
Test Description: Inhibition of TNF-alpha-stimulated cJun phosphorylation in HepG2 cells
Type: functional, cell-based

[in] Which value of IC50 has been reported for Cc1nn(C)c2c1c(=O)c1cc(Br)ccc1n2O in the records?
[out] > 30 µM

[in] Tell me the measured IC50 of CCc1nn(C)c2c1c(=O)c1cc(Cl)ccc1n2O , please.
[out] 32 µM

[in] Please give the measured IC50 for this molecule: Cc1nn(CC(=O)O)c2c1c(=O)c1cc(Cl)ccc1n2O
[out] > 30 µM

[in] // returns reported IC50 for input CC(=O)NCCc1nn(C)c2c1c(=O)c1cc(Cl)ccc1n2O
[out] > 30 µM

[in] I am curious: what IC50 value has been reported for CCn1nc(C)c2c(=O)c3cc(Cl)ccc3n(O)c21 ?
[out] > 30 µM

[in] Name the reported IC50 value associated with the molecule CCNC(=O)NCCCc1nn(C)c2c1c(=O)c1cc(Cl)ccc1n2O
[out] > 30 µM

[in] Which IC50 is listed for CNC(=O)Cn1nc(C)c2c(=O)c3cc(Cl)ccc3n(O)c21 ?
[out] > 30 µM

[in] Look up IC50 for this molecule: Cn1nc(CCCC(=O)O)c2c(=O)c3cc(Cl)ccc3n(O)c21
[out] > 30 µM

[in] Recorded IC50 for Cc1nn(C)c2c1c(=O)c1cc(Cl)ccc1n2O , please?
[out] > 30 µM

[in] Entry CCOn1c2ccc(Cl)cc2c(=O)c2c(C)nn(C)c21 : reported IC50 = ?
[out] 10.6 µM

###

Assay System: Mitogen-activated protein kinase 8 (Homo sapiens, UniProt P45983)
Sequence (P45983 whole entry): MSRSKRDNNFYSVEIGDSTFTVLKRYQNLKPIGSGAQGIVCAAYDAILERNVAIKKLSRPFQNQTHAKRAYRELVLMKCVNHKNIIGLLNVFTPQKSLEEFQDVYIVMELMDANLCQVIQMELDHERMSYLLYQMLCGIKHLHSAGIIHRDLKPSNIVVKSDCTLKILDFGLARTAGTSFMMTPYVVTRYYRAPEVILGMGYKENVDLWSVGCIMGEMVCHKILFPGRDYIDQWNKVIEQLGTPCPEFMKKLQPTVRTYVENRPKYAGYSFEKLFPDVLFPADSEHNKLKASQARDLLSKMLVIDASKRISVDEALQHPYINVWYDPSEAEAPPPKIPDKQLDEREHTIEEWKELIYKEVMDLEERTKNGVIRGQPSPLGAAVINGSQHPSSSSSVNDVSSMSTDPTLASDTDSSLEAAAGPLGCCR
Test Description: Inhibition of JNK1
Please respond with reported IC50 for every item in the list.

[in] Entry Cc1nn(C)c2c1c(=O)c1cc(Cl)ccc1n2OC(C)C has what IC50?
[out] > 10 µM

[in] I am curious: what IC50 value has been reported for Cc1nn(C)c2c1c(=O)c1cc(Cl)ccc1n2OC1CCCC1 ?
[out] > 10 µM

[in] Consider the compound COc1cc(Cl)cc2c(=O)c3c(C(F)(F)F)nn(C)c3n(O)c12 and give its measured IC50.
[out] > 10 µM

[in] Fill in the blank: the reported IC50 of CN(C)c1cc2c(cc1Cl)c(=O)c1c(C(F)(F)F)nn(C)c1n2O is ____.
[out] > 10 µM

[in] Fill in the blank: the reported IC50 of Cn1nc(C(C)(C)C)c2c(=O)c3cc(Cl)ccc3n(O)c21 is ____.
[out] > 10 µM

[in] Look up IC50: Cc1nn(C)c2c1c(=O)c1ccccc1n2O
[out] > 10 µM

[in] Requested field: IC50. Item: Cc1nn(C)c2c1c(=O)c1cc(-c3ccccc3)ccc1n2O
[out] > 10 µM

[in] If you can, please state the reported IC50 value of Cn1nc(CCC(=O)O)c2c(=O)c3cc(Cl)ccc3n(O)c21 .
[out] > 10 µM

[in] Fill in the blank: the reported IC50 of Cc1nn(C)c2c1c(=O)c1cc(-c3cc[nH]n3)ccc1n2O is ____.
[out] > 10 µM

[in] Report IC50 for COC(=O)c1nn(C)c2c1c(=O)c1cc(Cl)ccc1n2O please.
[out] > 10 µM

[in] Which IC50 reading was recorded for the compound CC(C)c1nn(C)c2c1c(=O)c1cc(Cl)ccc1n2O ?
[out] 2.64 µM

[in] I am curious: what IC50 value has been reported for CCCc1nn(C)c2c1c(=O)c1cc(Cl)ccc1n2O ?
[out] 1.31 µM

[in] Fill blank: measured IC50 of the compound Cc1nn(CC(=O)O)c2c1c(=O)c1cc(Cl)ccc1n2O is ____.
[out] 4.41 µM

[in] Report IC50 for Cn1nc(-c2ccc(N)cc2)c2c(=O)c3cc(Cl)ccc3n(O)c21 please.
[out] > 10 µM

[in] For CCOn1c2ccc(Cl)cc2c(=O)c2c(C)nn(C)c21 , what is its reported IC50?
[out] 2.78 µM

[in] So what does the record say about IC50 for CNC(=O)CCCc1nn(C)c2c1c(=O)c1cc(Cl)ccc1n2O ?
[out] 0.75 µM

[in] // query IC50 value for entry Cc1nn(CCO)c2c1c(=O)c1cc(Cl)ccc1n2O
[out] 7.67 µM

[in] I have this compound here, Cc1nn(C)c2c1c(=O)c1cc(Cl)ccc1n2OCc1ccccc1 , and I need its recorded IC50.
[out] > 10 µM

[in] Consider the compound shown here: Cc1nn(C)c2nc3ccc(Cl)cc3c(O)c12 What is its recorded IC50?
[out] > 10 µM

[in] // query IC50 value for entry Cn1nc(C(F)(F)F)c2c(=O)c3c(Cl)c(Cl)ccc3n(O)c21
[out] > 10 µM

[in] IC50 for CCOC(=O)Cn1nc(C)c2c(=O)c3cc(Cl)ccc3n(O)c21 ?
[out] 7.64 µM
